molecular target: Human carbonic anhydrase II (hCA-II) (Homo sapiens (Human), UniProt P00918)
measured attribute: IC50

{"columns": ["smiles", "study target", "test value"],
 "data": [
  ["NS(=O)(=O)c1ccc(CN2CCN(C(=O)c3cc(OCC4CCOCC4)nc(C4CC4)c3)CC2)c(F)c1", "Human carbonic anhydrase II (hCA-II) (Homo sapiens (Human), UniProt P00918)", "15.5 nM"]
]}

====

molecular target: ATX (human His-tagged) (Homo sapiens (Human), UniProt Q13822); experiment: Human ATX enzyme inhibition assay (fluorescence quenching, MR121 substrate); format: biochemical; conditions: 30 nM ATX, 1 μM MR121 substrate, 30° C.

{"columns": ["compound", "IC50 / nM"],
 "data": [
  ["Cc1nnn(Cc2cc(C(F)(F)F)ccc2COC(=O)N2CCC(S(=O)(=O)c3ccc(S(N)(=O)=O)cc3F)CC2)n1", 8],
  ["Cc1nnn(Cc2cc(OC(F)F)ccc2CCC(=O)N2CCC(CC[S+]([O-])c3ccc(S(N)(=O)=O)c(F)c3F)CC2)n1 (stereo not shown)", 3],
  ["Cc1nnn(Cc2cc(OC(F)F)ccc2CCC(=O)N2CCC(CC[S+]([O-])c3ncc(S(N)(=O)=O)s3)CC2)n1 (stereo not shown)", 7],
  ["Cc1nnn(Cc2cc(C(F)(F)F)ccc2CCC(=O)N2CCC(CC[S+]([O-])c3ccc(S(N)(=O)=O)c(F)c3F)CC2)n1 (stereo not shown)", 6]
]}

Data origin: patent US11059794B2
